Molecular target: PYL4 (Arabidopsis thaliana, UniProt O80920)
Construct: 6X-His; made in house; host or cells: E. coli BL21[DE3]pLysS
Sequence (O80920 whole entry, one chain of several): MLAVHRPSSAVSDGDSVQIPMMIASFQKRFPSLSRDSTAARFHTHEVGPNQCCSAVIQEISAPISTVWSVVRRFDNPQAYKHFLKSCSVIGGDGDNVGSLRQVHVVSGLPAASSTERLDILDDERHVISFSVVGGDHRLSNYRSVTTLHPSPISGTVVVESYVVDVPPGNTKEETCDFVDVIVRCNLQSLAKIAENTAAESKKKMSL
Experiment: receptor-mediated PP2C (HAB1) inhibition in vitro assay
Assay type: biochemical
Settings: 50 uM of the test compound
Procedure: A family of 62 structurally related N-acyl sulfonamides (Tables I-V) were tested for ABA agonist activity using multiple receptor-mediated PP2C inhibition in vitro assays (Park et al., 2009). […] For these in vitro receptor assays, the compounds listed were tested in in vitro PP2C inhibition assays with 50 uM of the test compound except for ABA (10 uM). IC50s were calculated from dose curves, but only for selected compounds.
Each record here notes measured remaining activity at 50 µM.
Expressed in %, but write only the number.

structure_string=N#Cc1ccc(CS(=O)(=O)NC(=O)C2(c3ccccc3)CCCCC2)cc1 val=95

Exam item: Provide remaining activity at 50 µM value for the following compound: "N#Cc1ccc(CS(=O)(=O)NC(=O)C2(c3ccsc3)CCCCC2)cc1"
Marked response: 102

Exam item: Hello, please tell me recorded remaining activity at 50 µM for this one: "N#Cc1ccc(CS(=O)(=O)NC(=O)C(c2ccccc2)c2ccccc2)cc1"
Marked response: 93.2

Exam item: Write down remaining activity at 50 µM measured for item "N#Cc1ccc(CS(=O)(=O)NC(=O)C2(c3cccs3)CCCCC2)cc1"
Marked response: 98

###

molecular target: PYL4 (Arabidopsis thaliana); construct: 6X-His; made in house; host or cells: E. coli BL21[DE3]pLysS; assay: receptor-mediated PP2C (HAB1) inhibition in vitro assay; type: biochemical; settings: compound at 25 μM; control without agonist = 100%
Collected PP2C Activity (25 μm) PYL4 values appear next to each entry.
Dear colleague, please return just the value in %, with no unit written.

Exam item: Kindly indicate its recorded PP2C Activity (25 μm) PYL4. Item: CC(C)(C(=O)NS(=O)(=O)Cc1ccc(C#N)cc1)c1cccc(Cl)c1 [Compound 15]
Marked response: 96

Exam item: Supply recorded PP2C Activity (25 μm) PYL4 for CC(C)(C(=O)NS(=O)(=O)Cc1ccc(C#N)cc1)c1ccc(C(F)(F)F)cc1 [Compound 11] here.
Marked response: 93

Exam item: For the compound N#Cc1ccc(CS(=O)(=O)NC(=O)C2(c3ccc(Br)cc3)CCC2)cc1 [Compound 31] , report PP2C Activity (25 μm) PYL4.
Marked response: 97

Exam item: Hello, please tell me recorded PP2C Activity (25 μm) PYL4 for this one: CC(C)(C(=O)NS(=O)(=O)Cc1ccc(C#N)cc1)c1ccc2c(c1)OCCO2 [Compound 53]
Marked response: 89

Exam item: Report PP2C Activity (25 μm) PYL4, nothing else, for this compound: CC(C)(C(=O)NS(=O)(=O)Cc1ccc(F)cc1)c1ccccc1 [Compound 4]
Marked response: 97

Exam item: For the compound N#Cc1ccc(CS(=O)(=O)NC(=O)C2(c3ccccc3)CCN(S(=O)(=O)c3ccccc3)CC2)cc1 [Compound 60] , give its reported PP2C Activity (25 μm) PYL4.
Marked response: 90

Exam item: Specify measured PP2C Activity (25 μm) PYL4 for CC(C)COc1ccc(C(C)(C)C(=O)NS(=O)(=O)Cc2ccc(C#N)cc2)cc1 [Compound 14] .
Marked response: 97

Exam item: Specify measured PP2C Activity (25 μm) PYL4 for COc1ccccc1C1(C(=O)NS(=O)(=O)Cc2ccc(C#N)cc2)CC1 [Compound 41] .
Marked response: 93

Exam item: Provide measured PP2C Activity (25 μm) PYL4 value, entry: CC(C)(C)c1ccc(C2(C(=O)NS(=O)(=O)Cc3ccc(C#N)cc3)CC2)cc1 [Compound 40]
Marked response: 92

Exam item: Report measured PP2C Activity (25 μm) PYL4; entry is N#Cc1ccc(CS(=O)(=O)NC(=O)C2(c3cccc(F)c3)CCC2)cc1 [Compound 33]
Marked response: 98

Exam item: // Input: CCC(CC)(C(=O)NS(=O)(=O)Cc1ccc(C#N)cc1)c1ccc(Cl)cc1 [Compound 10] . Output its PP2C Activity (25 μm) PYL4 only.
Marked response: 93

###

Molecular target: PYL11 (Arabidopsis thaliana)
Construct: made in house; host or cells: E. coli BL21[DE3]pLysS
Sequence (Q9FJ50 whole entry, one chain of several): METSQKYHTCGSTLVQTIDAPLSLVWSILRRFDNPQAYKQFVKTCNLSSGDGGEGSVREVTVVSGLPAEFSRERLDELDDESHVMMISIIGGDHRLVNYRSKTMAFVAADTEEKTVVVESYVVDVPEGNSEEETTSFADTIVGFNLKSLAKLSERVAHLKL
Assay: receptor-mediated PP2C (HAB1) inhibition in vitro assay
Format: biochemical
Conditions: Table VII; read-out: PP2C Dose Curves PYL11 (IC50)
Method: A family of 62 structurally related N-acyl sulfonamides (Tables I-V) were tested for ABA agonist activity using multiple receptor-mediated PP2C inhibition in vitro assays (Park et al., 2009). […] For these in vitro receptor assays, the compounds listed were tested in in vitro PP2C inhibition assays with 50 uM of the test compound except for ABA (10 uM). IC50s were calculated from dose curves, but only for selected compounds.
Listed compounds paired with reported IC50
State the answer as a number, implicitly in µM.

Take a look at these entries with their results.
structure_string=CC(C)(C(=O)NS(=O)(=O)Cc1ccc(C#N)cc1)c1ccc(F)cc1 target_entity="PYL11 (Arabidopsis thaliana)" val=2.48
structure_string=CC(C)(C(=O)NS(=O)(=O)Cc1ccc(C#N)cc1)c1ccccc1 target_entity="PYL11 (Arabidopsis thaliana)" val=7.84
structure_string=N#Cc1ccc(CS(=O)(=O)NC(=O)C2(c3cccc(F)c3)CCCC2)cc1 target_entity="PYL11 (Arabidopsis thaliana)" val=7.52
structure_string=CC(C)(C(=O)NS(=O)(=O)Cc1ccc(C#N)cc1)c1ccc(Cl)cc1 target_entity="PYL11 (Arabidopsis thaliana)" val=4.16
structure_string=N#Cc1ccc(CS(=O)(=O)NC(=O)C2(c3ccc(Br)cc3)CC2)cc1 target_entity="PYL11 (Arabidopsis thaliana)" val=4.63

Exam item: Read the entry "CC(C)(C(=O)NS(=O)(=O)Cc1ccc(C#N)cc1)c1ccc(Cl)c(Cl)c1" and write its reported IC50.
Marked response: 13.9

Exam item: Name the recorded IC50 of the item "N#Cc1ccc(CS(=O)(=O)NC(=O)C2(c3ccccc3)CCC2)cc1" in your answer.
Marked response: 1.77

Exam item: Complete the entry with IC50 for "N#Cc1ccc(CS(=O)(=O)NC(=O)C2(c3ccc(F)cc3)CCCC2)cc1"
Marked response: 4.09

###

Biological target: PYL9 (Arabidopsis thaliana)
Construct: 6X-His; made in house; host or cells: E. coli BL21[DE3]pLysS
Sequence (Q84MC7 1-187): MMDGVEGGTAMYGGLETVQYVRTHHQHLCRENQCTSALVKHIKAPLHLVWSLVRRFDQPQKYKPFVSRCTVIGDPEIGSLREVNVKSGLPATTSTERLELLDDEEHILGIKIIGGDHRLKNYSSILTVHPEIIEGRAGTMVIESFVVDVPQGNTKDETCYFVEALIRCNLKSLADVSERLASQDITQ
Sequence (Q9CAJ0 23-511 partner): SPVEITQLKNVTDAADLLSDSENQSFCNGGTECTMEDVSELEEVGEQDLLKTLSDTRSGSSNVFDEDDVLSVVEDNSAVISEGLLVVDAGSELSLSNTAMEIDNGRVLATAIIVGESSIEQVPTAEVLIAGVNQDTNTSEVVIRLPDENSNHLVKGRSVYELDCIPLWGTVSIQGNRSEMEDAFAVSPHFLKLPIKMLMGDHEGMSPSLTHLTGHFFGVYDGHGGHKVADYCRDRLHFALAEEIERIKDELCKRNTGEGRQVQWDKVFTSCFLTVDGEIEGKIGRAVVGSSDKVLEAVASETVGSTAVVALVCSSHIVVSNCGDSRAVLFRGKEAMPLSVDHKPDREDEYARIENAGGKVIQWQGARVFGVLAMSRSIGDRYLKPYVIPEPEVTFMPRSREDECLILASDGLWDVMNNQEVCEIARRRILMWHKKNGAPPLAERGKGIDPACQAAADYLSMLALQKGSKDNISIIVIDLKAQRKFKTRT
Assay: receptor-mediated PP2C (HAB1) inhibition in vitro assay
Type: biochemical
Conditions: compound at 25 μM; control without agonist = 100%
The label depends only on PP2C Activity (25 μm) PYL9: 1.0 if it is at least 60%, 0.0 if it is smaller.

structure_string=CC(=O)N1CCC(C(=O)NS(=O)(=O)Cc2ccc(C#N)cc2)(c2ccccc2)CC1 target_entity="PYL9 (Arabidopsis thaliana)" label_value=1.0
structure_string=CC(C)(C(=O)NS(=O)(=O)Cc1ccc(C#N)cc1)c1ccc(C(F)(F)F)cc1 target_entity="PYL9 (Arabidopsis thaliana)" label_value=0.0
structure_string=CC(C)(C(=O)NS(=O)(=O)Cc1ccc(C#N)cc1)c1cccc(Cl)c1 target_entity="PYL9 (Arabidopsis thaliana)" label_value=0.0

Exam item: Is it the case that "CC(C)(C(=O)NS(=O)(=O)Cc1ccc2cccnc2c1)c1ccccc1" has PP2C Activity (25 μm) PYL9 reaching or exceeding 60%?
Marked response: 0.0

###

tested on: Arabidopsis seed germination and hypocotyl growth; assay: Arabidopsis seed germination and hypocotyl growth; format: in vivo; settings: Arabidopsis thaliana; Germination Effects III; tested at 1, 5, 10, 25 and 50 uM; lowest inhibiting concentration; — = none; read-out: Germination Inhibition
Let's look at some molecules and their measured minimal effective concentration.
Record the value in µM, omitting the unit from your answer.

Consider the reported minimal effective concentration for these molecules:
molecule="CC1CCC(C(=O)NS(=O)(=O)Cc2ccc(C#N)cc2)(c2ccc(F)cc2)CC1 (stereo not shown)" target_entity="Arabidopsis seed germination and hypocotyl growth" assay_readout="minimal effective concentration" val=25
molecule=N#Cc1ccc(CS(=O)(=O)NC(=O)C2(c3cccs3)CCCCC2)cc1 target_entity="Arabidopsis seed germination and hypocotyl growth" assay_readout="minimal effective concentration" val=5
molecule=N#Cc1ccc(CS(=O)(=O)NC(=O)C2(c3ccsc3)CCCCC2)cc1 target_entity="Arabidopsis seed germination and hypocotyl growth" assay_readout="minimal effective concentration" val=2.5
molecule=CC1(C)CCC(C(=O)NS(=O)(=O)Cc2ccc(C#N)cc2)(c2ccc(F)cc2)CC1 target_entity="Arabidopsis seed germination and hypocotyl growth" assay_readout="minimal effective concentration" val=25
molecule=N#Cc1ccc(CS(=O)(=O)NC(=O)C2(c3ccccc3)CCCCC2)cc1 target_entity="Arabidopsis seed germination and hypocotyl growth" assay_readout="minimal effective concentration" val=5

Exam item: Give the reported value of minimal effective concentration for this record: "N#Cc1ccc(CS(=O)(=O)NC(=O)C2(c3ccsc3)CCCCC2)cc1Br"
Marked response: 1

Exam item: Output minimal effective concentration of "CC(C)(C(=O)NS(=O)(=O)Cc1ccc(C#N)cc1)c1ccc(F)cc1"
Marked response: 10
